target: T1, Human VEGF-A 165 (human, UniProt P15692 207-395); assay: Biacore SPR (Example 1.1)
T1 construct: also called hVEGF165; huVEGF-A165
T1 sequence (P15692 other isoform, or with tags, fused parts or gaps limits assumed): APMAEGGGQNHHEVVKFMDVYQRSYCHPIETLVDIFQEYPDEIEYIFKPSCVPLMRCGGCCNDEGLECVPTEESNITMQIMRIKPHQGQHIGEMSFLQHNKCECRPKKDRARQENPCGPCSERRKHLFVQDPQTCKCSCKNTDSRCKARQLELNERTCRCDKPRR
pKd: −log10 of the molar value.
Test readout: pKd

Binder	Test readout	Reported result
BEW-10H2-B9 (antibody, IgG2b, V domains shown) VH: QIQLVQSGPELKKPGESVKISCKASGYSFTNFGLYWVKQAPGQGLQYMGWIDTETGKPTYADDFRGRFVFFLETSASTAYLQINNLKNEDMATYFCARVYGYPSWYFDFWGPGTMVTVSS VL: DIQMTQSPASLSTSLEEIVTITCQASQDIDNYLSWYQQKPGKSPQLLIHSATSLADGVPSRFSGSRSGTQFSLKIHRLQVEDTGIYYCLQHFFPPWTFGGGTKLELK	pKd	10.96
